# tgt: kappa opioid receptor (OPRK1) (Homo sapiens (Human))
# Sequence (P41145 whole entry): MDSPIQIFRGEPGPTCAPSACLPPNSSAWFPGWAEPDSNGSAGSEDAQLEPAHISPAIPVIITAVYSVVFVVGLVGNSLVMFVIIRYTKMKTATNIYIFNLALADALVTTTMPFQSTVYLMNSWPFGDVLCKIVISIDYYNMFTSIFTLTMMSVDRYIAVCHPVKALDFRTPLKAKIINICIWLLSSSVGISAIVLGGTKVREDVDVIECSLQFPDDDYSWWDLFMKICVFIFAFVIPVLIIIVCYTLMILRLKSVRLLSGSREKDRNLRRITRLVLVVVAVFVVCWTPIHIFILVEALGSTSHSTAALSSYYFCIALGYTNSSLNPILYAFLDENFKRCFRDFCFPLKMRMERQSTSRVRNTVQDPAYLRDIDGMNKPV
# test: OPRK1 antagonist assay (b-arrestin-2-TEV / b-lactamase reporter cell line, EC80 U-50488 challenge)
# Type: cell-based
# experimental-parameters: read-out: IC50 nM (% inhib if other than 50%); antagonist mode vs EC80 U-50488; NA = not active at concentrations up to 10 μM
just bin them by IC50: I = under 100 nM, II = from 100 nM up to 700 nM, III = 700 nM and over

* Cc1noc(-c2cc3c(nc2N2CCC(NC4CCCCC4)C(CO)C2)CCCC3)n1 (stereo not drawn) | II
* Cc1noc(-c2cc3cccc(C)c3nc2N2CCC(NC3CCCCC3)C(CO)C2)n1 (stereo not drawn) | I
* COC(=O)c1cc(C)cnc1N1CCC(NC2CCCCC2)CC1 | II
* Cc1cnc(N2CCC(NC3CCCCC3)C(CO)C2)c(-c2nc(C)no2)c1 (stereo not drawn) | I
* Cc1cnc(N2CCC(NC3CCCCC3)C(CO)C2)c(C#N)c1 (stereo not drawn) | III
* COC(=O)c1cc(Br)cnc1N1CCC(NC2CCCC(C)C2C)CC1 (stereo not drawn) | III
* COC(=O)c1cc(I)cnc1N1CCC(NC2CCCCC2OC)C(CO)C1 (stereo not drawn) | II
* COC(=O)c1cc(I)cnc1N1CCC(NC2CCCCC2O)CC1 (stereo not drawn) | II
* COC(=O)c1cc(Br)cnc1N1CCC(CNC2CCCCC2)CC1 | III
* CC(=O)c1cc(Br)cnc1N1CCC(NC2CCCCC2)C(O)C1 (stereo not drawn) | III
* Cc1cnc(N2CC[C@@H](NC3CCCCC3)[C@H](O)C2)c(C#N)c1 | III
* COC(=O)c1cc(Br)cnc1N1CCC(NC2CCCCC2)C(OC(C)=O)C1 (stereo not drawn) | III
* COC(=O)c1cc(Br)cnc1N1CCC(NC2CC3CCC2C3)CC1 (stereo not drawn) | II
* Cc1ccc2nc(N3CCC(NCC(C)C)CC3)c(-c3nc(C4CC4)no3)cc2c1 | I
* CO[C@@H]1CN(c2nc3cc(F)ccc3cc2-c2nc(C)no2)CC[C@@H]1NC1CCCCC1 | I
* Cc1nc(-c2cc3cc(C)c(F)cc3nc2N2CCC(NC3CCOCC3)CC2)no1 | I

The origin of these recorded values is patent US20250346584A1.
